Read-out: Cytochrome P450 (CYP2B6), CYP2B6 (gene 1555)
Experiment: LTEA_HepaRG_CYP2B6: Life Technologies and Expression Analysis (LTEA) Assay for Cytochrome P450 (CYP2B6) using HepaRG (AID 2283481)
Settings: mRNA level, 48 h; actives raise or lower the signal
The source made the active and inactive calls. The calls were made as follows: active = hit-call score of the fitted dose curve at least 0.9, where 1 is the maximum; inactive = score below 0.9.
# valid calls are active, inactive; nothing else

**Q:** Which outcome was entered for the compound `CCSC(=O)N(CC)C1CCCCC1` in this test?
**A:** active

**Q:** Which outcome was entered for the compound `O=NN(c1ccccc1)c1ccccc1` in this test?
**A:** active

**Q:** Which outcome was entered for the compound `CCC(C)(CC)c1cc(NC(=O)c2c(OC)cccc2OC)on1` in this test?
**A:** active

**Q:** Which outcome was entered for the compound `Nn1cnnc1` in this test?
**A:** inactive

**Q:** Which outcome was entered for the compound `Clc1ccc(Cl)cc1` in this test?
**A:** inactive

**Q:** Which outcome was entered for the compound `O=S(=O)(O)C(F)(F)C(F)(F)C(F)(F)C(F)(F)C(F)(F)C(F)(F)F` in this test?
**A:** active

**Q:** Which outcome was entered for the compound `Cc1cccc(C)c1N` in this test?
**A:** active

**Q:** Which outcome was entered for the compound `Oc1ccc(C(c2ccc(O)cc2)(C(F)(F)F)C(F)(F)F)cc1` in this test?
**A:** active

**Q:** Which outcome was entered for the compound `O=C(NC(=O)c1cc(F)c(F)cc1Cl)Nc1cc(F)ccc1N1CCC(C(=O)O)CC1` in this test?
**A:** inactive

**Q:** Which outcome was entered for the compound `CCCCCCOC(=O)c1ccccc1C(=O)OCCCCCC` in this test?
**A:** inactive

**Q:** Which outcome was entered for the compound `CC#Cc1cc(C)nc(Nc2ccccc2)n1` in this test?
**A:** active

**Q:** Which outcome was entered for the compound Clc1ccc(C(c2ccccc2Cl)C(Cl)(Cl)Cl)cc1 (stereo not drawn) in this test?
**A:** active

**Q:** Which outcome was entered for the compound `CCNc1nc(NC(C)C)nc(SC)n1` in this test?
**A:** active

###

Experiment: CCTE_Shafer_MEA_dev_network_spike_duration_std: CCTE's Neural Network Formation Assay for Standard Deviation of Network Spike Duration, Shafer Lab (AID 2284052);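 also: area under curve of spike duration SD across recording days 5 to 12; hits are decreases in network spike duration SD versus DMSO vehicle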
The source made the active and inactive calls. Rule for the calls: active = hit-call score of the fitted dose curve at least 0.9, where 1 is the maximum; inactive = score below 0.9.
# valid calls are T = active, F = inactive; nothing else

**Q:** Which outcome was entered for the compound `NS(=O)(=O)C(F)(F)C(F)(F)C(F)(F)C(F)(F)C(F)(F)C(F)(F)C(F)(F)C(F)(F)F` in this test?
**A:** F

**Q:** Which outcome was entered for the compound Clc1ccc(C(c2ccccc2Cl)C(Cl)(Cl)Cl)cc1 (centres undefined) in this test?
**A:** F

**Q:** Which outcome was entered for the compound `O=S(=O)(O)C(F)(F)C(F)(F)C(F)(F)C(F)(F)F` in this test?
**A:** F

**Q:** Which outcome was entered for the compound `O=C(O)C(F)(F)C(F)(F)C(F)(F)C(F)(F)C(F)(F)F` in this test?
**A:** F

**Q:** Which outcome was entered for the compound `ClC1=C(Cl)[C@]2(Cl)[C@@H]3[C@@H]4C[C@@H]([C@H]5O[C@@H]45)[C@@H]3[C@@]1(Cl)C2(Cl)Cl` in this test?
**A:** T

**Q:** Which outcome was entered for the compound `ClC1=C(Cl)[C@]2(Cl)[C@@H]3[C@H]4C[C@H]([C@@H]5O[C@H]45)[C@@H]3[C@@]1(Cl)C2(Cl)Cl` in this test?
**A:** F

**Q:** Which outcome was entered for the compound `O=S(=O)(O)C(F)(F)C(F)(F)C(F)(F)C(F)(F)C(F)(F)C(F)(F)F` in this test?
**A:** F

**Q:** Which outcome was entered for the compound `O=C(O)C(F)(F)C(F)(F)C(F)(F)C(F)(F)C(F)(F)C(F)(F)C(F)(F)C(F)(F)F` in this test?
**A:** F

**Q:** Which outcome was entered for the compound `ClC1=C(Cl)[C@]2(Cl)[C@@H]3[C@@H](Cl)[C@H]4O[C@H]4[C@@H]3C1(Cl)C2(Cl)Cl` in this test?
**A:** F

###

Read-out: Macrophage colony-stimulating factor (MCSF), CSF1 (gene 1435)
Test: BSK_hDFCGF_MCSF: BioMAP Diversity Plus: hDFCGF Assay for Macrophage colony-stimulating factor (MCSF) Biomarker Activity (AID 2283060)
Settings: primary human foreskin fibroblasts; actives raise or lower the signal
Active and inactive are the calls of the source. Rule for the calls: active = hit-call score of the fitted dose curve at least 0.9, where 1 is the maximum; inactive = score below 0.9.
# valid calls are active, inactive; nothing else

**Q:** Which outcome was entered for the compound `CN(C)CCO` in this test?
**A:** inactive

**Q:** Which outcome was entered for the compound `O=C(NC(=O)c1c(F)cccc1F)Nc1cc(Cl)c(OC(F)(F)C(F)F)c(Cl)c1` in this test?
**A:** inactive

**Q:** Which outcome was entered for the compound `ClC1=C(Cl)[C@]2(Cl)[C@@H]3[C@@H](Cl)[C@H]4O[C@H]4[C@@H]3C1(Cl)C2(Cl)Cl` in this test?
**A:** inactive

**Q:** Which outcome was entered for the compound `CN(C)c1nc(=O)n(C2CCCCC2)c(=O)n1C` in this test?
**A:** inactive

**Q:** Which outcome was entered for the compound `CCOC(=O)C(O)(c1ccc(Cl)cc1)c1ccc(Cl)cc1` in this test?
**A:** active

**Q:** Which outcome was entered for the compound `O=NN(c1ccccc1)c1ccccc1` in this test?
**A:** inactive

**Q:** Which outcome was entered for the compound `O=C(O)C(F)(F)C(F)(F)C(F)(F)C(F)(F)C(F)(F)F` in this test?
**A:** inactive

**Q:** Which outcome was entered for the compound `O=S(=O)(O)C(F)(F)C(F)(F)C(F)(F)C(F)(F)F` in this test?
**A:** inactive

**Q:** Which outcome was entered for the compound `Cc1cc(-c2ccc(N)c(C)c2)ccc1N` in this test?
**A:** inactive

**Q:** Which outcome was entered for the compound `ClC1=C(Cl)[C@]2(Cl)[C@@H]3[C@H]4C[C@H]([C@@H]5O[C@H]45)[C@@H]3[C@@]1(Cl)C2(Cl)Cl` in this test?
**A:** inactive

**Q:** Which outcome was entered for the compound `C=CC(N)=O` in this test?
**A:** inactive

**Q:** Which outcome was entered for the compound `Clc1ccc(Cl)cc1` in this test?
**A:** inactive

###

Target: human Peroxisome Proliferator-activated Receptor delta (PPARd), PPARD (gene 5467) (UniProt Q03181)
Sequence (Q03181 whole entry, looked up): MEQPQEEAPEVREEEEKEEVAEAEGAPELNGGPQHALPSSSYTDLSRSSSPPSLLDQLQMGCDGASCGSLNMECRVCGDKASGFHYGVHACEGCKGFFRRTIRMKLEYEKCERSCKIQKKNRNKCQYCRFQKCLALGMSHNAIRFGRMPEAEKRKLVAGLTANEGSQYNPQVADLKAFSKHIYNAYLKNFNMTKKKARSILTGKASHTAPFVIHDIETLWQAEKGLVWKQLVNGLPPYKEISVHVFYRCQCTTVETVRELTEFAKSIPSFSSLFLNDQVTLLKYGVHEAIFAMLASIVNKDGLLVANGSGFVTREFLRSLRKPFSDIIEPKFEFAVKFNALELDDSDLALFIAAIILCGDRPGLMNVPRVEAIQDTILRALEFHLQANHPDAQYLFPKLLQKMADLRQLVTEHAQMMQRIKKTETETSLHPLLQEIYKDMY
Assay: ATG_PPARd_TRANS: Attagene TRANS-FACTORIAL HepG2 Assay for human Peroxisome Proliferator-activated Receptor delta (PPARd) (AID 2283002)
Inconclusive results are not listed. Calls of active or inactive are those of the source. Rule for the calls: active = hit-call score of the fitted dose curve at least 0.9, where 1 is the maximum; inconclusive = response in the unintended direction; inactive = score below 0.9.
parameter-measured: outcome

CN(C)CCO
inactive
Cc1ccc(O)c(C)c1
inactive
OCC(O)CO
inactive

###

Target: human Vitamin D Receptor (VDR), VDR (gene 7421) (UniProt P11473)
Sequence (P11473 whole entry, looked up): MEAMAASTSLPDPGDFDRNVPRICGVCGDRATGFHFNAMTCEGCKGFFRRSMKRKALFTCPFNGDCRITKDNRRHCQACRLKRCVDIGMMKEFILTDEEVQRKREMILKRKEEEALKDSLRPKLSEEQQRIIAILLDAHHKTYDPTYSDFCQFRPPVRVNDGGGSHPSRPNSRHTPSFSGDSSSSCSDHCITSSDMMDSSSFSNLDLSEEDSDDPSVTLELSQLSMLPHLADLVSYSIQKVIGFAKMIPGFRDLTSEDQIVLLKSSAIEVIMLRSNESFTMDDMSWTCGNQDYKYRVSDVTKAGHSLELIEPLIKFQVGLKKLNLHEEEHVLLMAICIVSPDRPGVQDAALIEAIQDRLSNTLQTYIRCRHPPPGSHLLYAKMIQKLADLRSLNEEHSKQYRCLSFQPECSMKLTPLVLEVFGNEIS
Assay: ATG_VDR_TRANS: Attagene TRANS-FACTORIAL HepG2 Assay for human Vitamin D Receptor (VDR) (AID 2283022)
Protocol: ATG_TRANS is a cell-based, multiplexed-readout assay that uses HepG2, a human liver cell line, with measurements taken at 24 hours after chemical dosing in a 24-well plate.ATG_VDR_TRANS is one of 30 assay component(s) measured or calculated from the ATG_TRANS assay. […] This assay endpoint, ATG_VDR_TRANS, was analyzed in the positive analysis fitting direction relative to DMSO as the negative control and baseline of activity. […]
Inconclusive results are not listed. Calls of active or inactive are those of the source. Rule for the calls: active = hit-call score of the fitted dose curve at least 0.9, where 1 is the maximum; inconclusive = response in the unintended direction; inactive = score below 0.9.
# valid calls are true (1) (active), false (0) (inactive); nothing else

**Q:** Which outcome was entered for the compound `CCC(C)(CC)c1cc(NC(=O)c2c(OC)cccc2OC)on1` in this test?
**A:** false (0)

**Q:** Which outcome was entered for the compound Clc1ccc(C(c2ccccc2Cl)C(Cl)(Cl)Cl)cc1 (stereo unspecified) in this test?
**A:** false (0)

**Q:** Which outcome was entered for the compound `Cc1ccccc1O` in this test?
**A:** false (0)

**Q:** Which outcome was entered for the compound `ClC1=C(Cl)[C@]2(Cl)[C@@H]3[C@@H](Cl)[C@H]4O[C@H]4[C@@H]3C1(Cl)C2(Cl)Cl` in this test?
**A:** false (0)

**Q:** Which outcome was entered for the compound `Cc1cccc([N+](=O)[O-])c1` in this test?
**A:** false (0)

**Q:** Which outcome was entered for the compound `C=CC(=O)NCNC(=O)C=C` in this test?
**A:** false (0)

**Q:** Which outcome was entered for the compound `Oc1ccc(C(c2ccc(O)cc2)(C(F)(F)F)C(F)(F)F)cc1` in this test?
**A:** false (0)

**Q:** Which outcome was entered for the compound `c1cc2ccc3cccc4ccc(c1)c2c34` in this test?
**A:** false (0)

**Q:** Which outcome was entered for the compound `CO/C=C(/C(=O)OC)c1ccccc1COc1cccc(C(F)(F)F)n1` in this test?
**A:** false (0)

**Q:** Which outcome was entered for the compound `C=CC(N)=O` in this test?
**A:** false (0)

**Q:** Which outcome was entered for the compound `COc1ccc(O)c(C(C)(C)C)c1` in this test?
**A:** false (0)

**Q:** Which outcome was entered for the compound `O=C(N[C@H]1CN2CCC1CC2)c1cc2ccoc2cn1` in this test?
**A:** false (0)

**Q:** Which outcome was entered for the compound `ClC1=C(Cl)[C@]2(Cl)[C@@H]3[C@@H]4C[C@@H]([C@H]5O[C@@H]45)[C@@H]3[C@@]1(Cl)C2(Cl)Cl` in this test?
**A:** false (0)

**Q:** Which outcome was entered for the compound `CCSC(=O)N(CC)C1CCCCC1` in this test?
**A:** false (0)

**Q:** Which outcome was entered for the compound `Cc1cc(O)ccc1Cl` in this test?
**A:** false (0)

**Q:** Which outcome was entered for the compound `CC(c1ccc(O)cc1)(c1ccc(O)cc1)c1ccc(O)cc1` in this test?
**A:** true (1)

**Q:** Which outcome was entered for the compound `CCNc1nc(NC(C)C)nc(SC)n1` in this test?
**A:** false (0)

**Q:** Which outcome was entered for the compound `O=C(O)C(F)(F)C(F)(F)C(F)(F)C(F)(F)C(F)(F)C(F)(F)C(F)(F)C(F)(F)F` in this test?
**A:** false (0)

**Q:** Which outcome was entered for the compound `CN(C)CCO` in this test?
**A:** false (0)

**Q:** Which outcome was entered for the compound `COS(=O)(=O)OC` in this test?
**A:** false (0)

**Q:** Which outcome was entered for the compound `CC(C)(c1ccccc1)c1ccc(O)cc1` in this test?
**A:** false (0)

Reference for the values: PubChem BioAssay (EPA / NIEHS)
